Target: T1, IL-18 receptors on HEK-Blue IL-18 reporter cells (UniProt Q13478 19-541; O95256 20-599, limits assumed)
T1 sequence (looked up) 1: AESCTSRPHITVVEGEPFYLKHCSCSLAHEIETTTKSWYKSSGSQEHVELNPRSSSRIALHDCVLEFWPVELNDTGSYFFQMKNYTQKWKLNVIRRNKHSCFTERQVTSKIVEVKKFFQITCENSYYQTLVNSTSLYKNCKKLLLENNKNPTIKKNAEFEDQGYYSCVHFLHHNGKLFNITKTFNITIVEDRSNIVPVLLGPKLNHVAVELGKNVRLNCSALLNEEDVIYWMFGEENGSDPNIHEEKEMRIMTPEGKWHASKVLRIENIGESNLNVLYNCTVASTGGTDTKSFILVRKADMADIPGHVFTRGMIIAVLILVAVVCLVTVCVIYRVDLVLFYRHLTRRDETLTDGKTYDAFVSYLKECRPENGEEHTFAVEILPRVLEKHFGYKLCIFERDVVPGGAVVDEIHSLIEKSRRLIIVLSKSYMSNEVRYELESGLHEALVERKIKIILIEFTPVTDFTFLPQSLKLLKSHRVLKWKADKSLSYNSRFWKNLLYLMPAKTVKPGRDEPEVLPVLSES
T1 sequence (looked up) 2: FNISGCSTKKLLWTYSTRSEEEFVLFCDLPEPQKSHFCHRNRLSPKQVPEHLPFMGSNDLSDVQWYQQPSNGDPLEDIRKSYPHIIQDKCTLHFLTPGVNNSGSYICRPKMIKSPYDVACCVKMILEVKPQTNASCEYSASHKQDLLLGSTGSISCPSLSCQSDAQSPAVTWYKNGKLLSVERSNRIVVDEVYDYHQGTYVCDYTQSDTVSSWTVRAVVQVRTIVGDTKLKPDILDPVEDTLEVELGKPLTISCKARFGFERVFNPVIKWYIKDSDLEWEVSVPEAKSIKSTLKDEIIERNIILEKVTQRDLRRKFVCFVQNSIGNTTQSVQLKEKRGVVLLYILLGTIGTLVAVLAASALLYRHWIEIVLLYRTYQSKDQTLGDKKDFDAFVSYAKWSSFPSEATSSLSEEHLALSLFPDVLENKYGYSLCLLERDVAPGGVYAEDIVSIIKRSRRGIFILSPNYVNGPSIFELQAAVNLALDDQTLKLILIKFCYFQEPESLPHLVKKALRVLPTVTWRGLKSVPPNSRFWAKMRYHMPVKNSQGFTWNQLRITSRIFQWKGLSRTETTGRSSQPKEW
Experiment: cell-based or functional assay
observation type: HEK-blue EC50 (pM) - BP

Entry human IL-18 variant G3V/E6K/K53A/M60K (ligand) YFVKLKSKLSVIRNLNDQVLFIDQGNRPLFEDMTDSDMRDNAPRTIFIISMYADSQPRGKAVTISVKSEKISTLSSENKIISFKEMNPPDNIKDTKSDIIFFQRSVPGHDNKMQFESSSYEGYFLASEKERDLFKLILKKEDELGDRSIMFTVQNED , HEK-blue EC50 (pM) - BP reported as 0.026 pM

Record human IL-18 variant G3V/M60K (ligand) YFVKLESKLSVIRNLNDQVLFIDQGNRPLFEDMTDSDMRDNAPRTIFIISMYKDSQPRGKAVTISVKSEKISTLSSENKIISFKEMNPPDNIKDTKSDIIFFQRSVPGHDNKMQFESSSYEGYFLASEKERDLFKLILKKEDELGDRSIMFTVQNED . Reported HEK-blue EC50 (pM) - BP: 0.042 pM
